# Test system: SK-BR-3;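 further: antiproliferative effect determined with an MTT read-out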
# assay-overview: cells
# Format: functional, cell-based
# condition-label: Homo sapiens, SK-BR-3, 72 h
# Description: Antiproliferative activity against human SK-BR-3 cells after 72 hrs by MTT assay
readout-type: IC50 (µM)

compound | assayed-target | unit-spec | IC50
c1cnc2ccc(Nc3ncnc4ccc(-c5cnn(C6CCNCC6)c5)cc34)cc2c1 | SK-BR-3 | µM | 2.66

1 = Cn1cc(-c2ccc3ncnc(Oc4ccc5ncccc5c4)c3c2)cn1
2 = CC(Oc1nc(N)nc2ccc(-c3cnn(C4CCNCC4)c3)cc12)c1c(Cl)ccc(F)c1Cl (stereo not given)
// compare measured IC50 between 1 and 2 ; output the lower one Kindly give the label for the entry you pick.
2

====

# Test system: A549;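 further: antiproliferative effect read out by MTT assay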
# assay-overview: cells
# Assay type: functional, cell-based
# condition-label: Homo sapiens, A549, 72 h
# Description: Antiproliferative activity against human A549 cells after 72 hrs by MTT assay
readout-type: IC50 (µM)

Example results:
compound | assayed-target | unit-spec | IC50
c1cnc2ccc(Nc3ncnc4ccc(-c5cnn(C6CCNCC6)c5)cc34)cc2c1 | A549 | µM | 32
CC(Oc1ncnc2ccc(-c3cnn(C4CCNCC4)c3)cc12)c1c(Cl)ccc(F)c1Cl (stereo not given) | A549 | µM | 6.75

A = COc1cccc(CNc2ncnc3ccc(-c4cnn(C)c4)cc23)c1
B = CC(Nc1nc(N)nc2ccc(-c3cnn(C4CCNCC4)c3)cc12)c1c(Cl)ccc(F)c1Cl (stereo not given)
C = CC(Nc1ncnc2ncc(-c3cnn(C4CCNCC4)c3)cc12)c1c(Cl)ccc(F)c1Cl (stereo not given)
Rank by IC50 (largest to smallest). Give the labels in the order requested.
A, C, B
